// provenance: patent US12447153B2

# Target desc: UniProt P04626
# Sequence (P04626 23-1255): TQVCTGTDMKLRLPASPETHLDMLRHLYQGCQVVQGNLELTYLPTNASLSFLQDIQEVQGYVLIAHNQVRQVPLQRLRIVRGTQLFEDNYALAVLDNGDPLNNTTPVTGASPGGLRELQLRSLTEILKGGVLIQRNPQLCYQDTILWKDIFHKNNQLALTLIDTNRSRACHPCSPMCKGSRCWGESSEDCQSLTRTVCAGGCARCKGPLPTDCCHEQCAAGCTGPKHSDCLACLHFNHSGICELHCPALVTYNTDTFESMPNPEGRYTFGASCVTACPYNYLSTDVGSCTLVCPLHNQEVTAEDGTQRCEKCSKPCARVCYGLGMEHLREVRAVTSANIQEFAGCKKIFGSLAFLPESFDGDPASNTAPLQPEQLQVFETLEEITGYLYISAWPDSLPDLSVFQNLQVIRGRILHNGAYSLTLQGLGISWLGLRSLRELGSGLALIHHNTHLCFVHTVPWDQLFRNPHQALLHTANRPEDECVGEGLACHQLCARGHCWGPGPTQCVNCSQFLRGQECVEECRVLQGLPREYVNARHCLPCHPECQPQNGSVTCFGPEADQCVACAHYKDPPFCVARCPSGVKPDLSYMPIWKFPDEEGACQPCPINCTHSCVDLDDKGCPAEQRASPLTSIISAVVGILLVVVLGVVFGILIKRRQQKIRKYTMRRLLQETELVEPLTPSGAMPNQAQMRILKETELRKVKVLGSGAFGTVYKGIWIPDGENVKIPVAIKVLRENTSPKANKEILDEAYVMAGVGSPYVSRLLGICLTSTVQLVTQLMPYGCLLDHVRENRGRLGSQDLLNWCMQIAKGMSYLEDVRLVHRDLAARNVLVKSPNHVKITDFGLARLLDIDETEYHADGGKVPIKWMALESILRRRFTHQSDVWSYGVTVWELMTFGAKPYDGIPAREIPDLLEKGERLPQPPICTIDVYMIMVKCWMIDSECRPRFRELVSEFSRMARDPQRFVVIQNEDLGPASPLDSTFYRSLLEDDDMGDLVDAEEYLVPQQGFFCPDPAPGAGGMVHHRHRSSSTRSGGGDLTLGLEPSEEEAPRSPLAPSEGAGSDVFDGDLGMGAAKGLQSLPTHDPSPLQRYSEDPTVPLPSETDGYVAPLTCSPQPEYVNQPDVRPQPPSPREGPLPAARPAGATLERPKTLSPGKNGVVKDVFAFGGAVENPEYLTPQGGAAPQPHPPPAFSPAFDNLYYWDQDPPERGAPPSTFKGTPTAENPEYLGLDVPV
# Assay method text: ErbB Enzyme Assay (HTRF KinEASE-TK), Assay 2
# Type: biochemical
# Run conditions: ErbB2 WT enzyme
Observable: IC50 (nM)

Example cases with answers are listed next.
C=CC(=O)N1CC2(C1)CN(c1ccc3ncnc(Nc4ccc(Oc5ccn6ncnc6c5)c(Cl)c4F)c3n1)C2 ... 39.2
C=CC(=O)N1CC[C@@H]2C[C@H](c3ccc4ncnc(Nc5cc(C)c(Oc6ccn7ncnc7c6)cc5F)c4n3)C[C@@H]21 (single isomer, unassigned) ... 26.5
C=CC(=O)N1CCC(Oc2ccc3ncnc(Nc4cc(Cl)c(Oc5ccc6cn(C)nc6c5)cc4Cl)c3n2)CC1 ... 1290

P = C=CC(=O)N1C[C@@H]2C[C@H]1CN(c1ccc3ncnc(Nc4ccc(Oc5ccc6c(c5)ncn6C)c(C)c4F)c3n1)C2
Q = C=CC(=O)N1CCC(Oc2ccc3ncnc(Nc4ccc(Oc5ccc6cn(C)nc6c5)c(F)c4)c3n2)CC1
Exam item: Of P and Q , which shows the smaller IC50 value? Give the label of your selection.
Marked response: P
(P: 282 nM, Q: 1030 nM)

a = C=CC(=O)N1CCN(c2ccc3ncnc(Nc4ccc(Oc5ccn6ncnc6c5)c(C)c4)c3n2)CC1(C)C
b = C=CC(=O)N1CCC(c2ccc3ncnc(Nc4ccc(Oc5ccc6c(c5)ncn6C)c(C)c4)c3n2)C1 (racemic)
Exam item: Of a and b , which shows the smaller IC50 value? Give the label of your selection.
Marked response: a
(a: 9 nM, b: 42 nM)

* * *

# Target desc: UniProt P04626
# Assay method text: ErbB Enzyme Assay (HTRF KinEASE-TK), Assay 2
# Format: biochemical
# Run conditions: ErbB2 WT enzyme
Observable: IC50 (nM)

Example cases with answers are listed next.
C=CC(=O)N1C[C@H]2CN(c3ccc4ncnc(Nc5ccc(Oc6ccc7c(c6)ncn7C)c(C)c5)c4n3)C[C@H]21 ... 52.3
C=CC(=O)N1CCC[C@@H](c2ccc3ncnc(Nc4cc(C)c(Oc5ccc6c(c5)ncn6C)cc4F)c3n2)C1 (racemic) ... 65.9

1 = C=CC(=O)N1CCCC[C@@H](c2ccc3ncnc(Nc4cc(C)c(Oc5ccc6c(c5)ncn6C)cc4F)c3n2)C1 (racemic)
2 = C=CC(=O)N1CC[C@H]2C[C@H](c3ccc4ncnc(Nc5cc(C)c(Oc6ccn7ncnc7c6)cc5F)c4n3)C[C@H]21 (racemic)
3 = C=CC(=O)N1CCC(Oc2ccc3ncnc(Nc4ccc(Oc5cnn6ccnc6c5)c(Cl)c4)c3n2)CC1
Exam item: Please list these in order of increasing IC50. Thank you! In plain terms: list the labels in the order you were asked to.
Marked response: 1, 2, 3
(1: 27.9 nM, 2: 58.7 nM, 3: 423 nM)

* * *

# Target desc: BCRP (Homo sapiens (Human), UniProt Q9UNQ0)
# Sequence (Q9UNQ0 whole entry): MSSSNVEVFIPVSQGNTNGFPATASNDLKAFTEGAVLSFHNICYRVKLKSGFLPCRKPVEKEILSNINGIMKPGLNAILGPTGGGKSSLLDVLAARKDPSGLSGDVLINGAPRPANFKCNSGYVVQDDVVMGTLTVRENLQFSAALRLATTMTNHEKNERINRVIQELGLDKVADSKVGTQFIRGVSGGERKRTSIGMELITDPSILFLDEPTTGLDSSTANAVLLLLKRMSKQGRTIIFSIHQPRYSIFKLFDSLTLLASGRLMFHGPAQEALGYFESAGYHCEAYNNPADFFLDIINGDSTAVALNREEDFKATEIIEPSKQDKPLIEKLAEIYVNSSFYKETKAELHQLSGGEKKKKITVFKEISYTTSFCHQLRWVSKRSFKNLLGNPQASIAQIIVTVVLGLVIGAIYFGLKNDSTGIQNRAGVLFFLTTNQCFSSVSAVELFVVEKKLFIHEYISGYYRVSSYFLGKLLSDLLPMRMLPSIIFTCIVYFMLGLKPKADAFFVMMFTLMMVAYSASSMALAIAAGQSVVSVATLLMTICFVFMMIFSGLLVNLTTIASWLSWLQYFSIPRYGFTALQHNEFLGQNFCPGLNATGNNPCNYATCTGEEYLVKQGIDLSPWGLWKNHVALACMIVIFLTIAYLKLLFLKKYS
# Assay method text: BCRP MDCKII efflux assay (Assay 7)
# Type: in vitro ADME
# Run conditions: dog; efflux ratio Papp(B-A)/Papp(A-B), BCRP MDCKII cells; read-out: Assay 7 Pe Ratio
Observable: efflux ratio at 2 h, 1 µM

Example cases with answers are listed next.
C=CC(=O)N1CCN(c2ccc3ncnc(Nc4ccc(Oc5ccn6ncnc6c5)c(C)c4F)c3n2)C[C@H]1COC [Example 358] ... 8.5
C=CC(=O)N1CC2(CCN2c2ccc3ncnc(Nc4ccc(Oc5ccn6ncnc6c5)c(C)c4F)c3n2)C1 [Example 289] ... 26

P = C=CC(=O)N1CCN(c2ccc3ncnc(Nc4cc(Cl)c(Oc5cnc6c(c5)ncn6C)cc4F)c3n2)CC1(C)C [Example 452]
Q = C=CC(=O)N1C[C@@H]2CN(c3ccc4ncnc(Nc5ccc(Oc6ccn7ncnc7c6)c(C)c5F)c4n3)C[C@@H]21 [Example 318]
Exam item: Of P and Q , which shows the smaller efflux ratio at 2 h, 1 µM value? Give the label of your selection.
Marked response: P
(P: 6.2, Q: 12.8)

* * *

# Target desc: BCRP (Homo sapiens (Human), UniProt Q9UNQ0)
# Assay method text: BCRP MDCKII efflux assay (Assay 7)
# Type: in vitro ADME
# Run conditions: dog; efflux ratio Papp(B-A)/Papp(A-B), BCRP MDCKII cells; read-out: Assay 7 Pe Ratio
Observable: efflux ratio at 2 h, 1 µM

C=CC(=O)N1CC2CC(C1)N2c1ccc2ncnc(Nc3ccc(Oc4ccc5c(c4)ncn5C)c(C)c3F)c2n1 ... 3
C=CC(=O)N1CCN(c2ccc3ncnc(Nc4ccc(Oc5ccn6ncnc6c5)c(C)c4F)c3n2)C[C@H]1C(C)C ... 1.7
C=CC(=O)N1CC[C@@H]2C[C@H]1CN2c1ccc2ncnc(Nc3cc(Cl)c(Oc4ccn5ncnc5c4)cc3F)c2n1 ... 3.6
CC#CC(=O)N1CC2CCC(C1)N2c1ccc2ncnc(Nc3ccc(Oc4ccn5ncnc5c4)c(C)c3F)c2n1 ... 1.3

A = C=CC(=O)N1C[C@H]2C[C@@H]1[C@H](c1ccc3ncnc(Nc4ccc(Oc5cnc6c(c5)ncn6C)c(C)c4)c3n1)C2
B = C=CC(=O)N1CCC(Sc2ccc3ncnc(Nc4ccc(Oc5ccc6c(c5)ncn6C)c(C)c4)c3n2)CC1
Exam item: When their efflux ratio at 2 h, 1 µM values are compared, which is larger, A or B ? Give the label of your selection.
Marked response: A
(A: 16, B: 10.8)

A = C=CC(=O)N1C[C@H]2C[C@@H]1CN(c1ccc3ncnc(Nc4cc(Cl)c(Oc5ccc6c(c5)ncn6C)cc4F)c3n1)C2
B = C=CC(=O)N1CCN(c2ccc3ncnc(Nc4ccc(Oc5ccn6ncnc6c5)c(Cl)c4)c3n2)CC1(C)C
Exam item: Of A and B , which shows the smaller efflux ratio at 2 h, 1 µM value? Give the label of your selection.
Marked response: A

* * *

# Target desc: BCRP (Homo sapiens (Human))
# Assay method text: BCRP MDCKII efflux assay (Assay 7)
# Format: in vitro ADME
# Run conditions: dog; efflux ratio Papp(B-A)/Papp(A-B), BCRP MDCKII cells; read-out: Assay 7 Pe Ratio
Observable: efflux ratio at 2 h, 1 µM

I = C=CC(=O)N1C[C@H]2CN(c3ccc4ncnc(Nc5ccc(Oc6ccc7c(c6)ncn7C)c(C)c5)c4n3)C[C@H]21
II = C=CC(=O)N1CCCC[C@@H](c2ccc3ncnc(Nc4cc(C)c(Oc5ccc6c(c5)ncn6C)cc4F)c3n2)C1 (racemic)
Exam item: When their efflux ratio at 2 h, 1 µM values are compared, which is larger, I or II ? Give the label of your selection.
Marked response: I
(I: 22.4, II: 1.9)

A = C=CC(=O)N1CCN(c2ccc3ncnc(Nc4ccc(Oc5cc(F)c6c(c5)ncn6C)c(C)c4)c3n2)CC1
B = C=CC(=O)N1CC[C@H]2CN(c3ccc4ncnc(Nc5cc(C)c(Oc6ccn7ncnc7c6)cc5F)c4n3)C[C@H]21
Exam item: Of A and B , which shows the smaller efflux ratio at 2 h, 1 µM value? Give the label of your selection.
Marked response: B
(B: 8.3, A: 25.2)

* * *

# Target desc: EGFR wild type (EGFR WT) (Homo sapiens (Human), UniProt P00533)
# Sequence (P00533 25-1210): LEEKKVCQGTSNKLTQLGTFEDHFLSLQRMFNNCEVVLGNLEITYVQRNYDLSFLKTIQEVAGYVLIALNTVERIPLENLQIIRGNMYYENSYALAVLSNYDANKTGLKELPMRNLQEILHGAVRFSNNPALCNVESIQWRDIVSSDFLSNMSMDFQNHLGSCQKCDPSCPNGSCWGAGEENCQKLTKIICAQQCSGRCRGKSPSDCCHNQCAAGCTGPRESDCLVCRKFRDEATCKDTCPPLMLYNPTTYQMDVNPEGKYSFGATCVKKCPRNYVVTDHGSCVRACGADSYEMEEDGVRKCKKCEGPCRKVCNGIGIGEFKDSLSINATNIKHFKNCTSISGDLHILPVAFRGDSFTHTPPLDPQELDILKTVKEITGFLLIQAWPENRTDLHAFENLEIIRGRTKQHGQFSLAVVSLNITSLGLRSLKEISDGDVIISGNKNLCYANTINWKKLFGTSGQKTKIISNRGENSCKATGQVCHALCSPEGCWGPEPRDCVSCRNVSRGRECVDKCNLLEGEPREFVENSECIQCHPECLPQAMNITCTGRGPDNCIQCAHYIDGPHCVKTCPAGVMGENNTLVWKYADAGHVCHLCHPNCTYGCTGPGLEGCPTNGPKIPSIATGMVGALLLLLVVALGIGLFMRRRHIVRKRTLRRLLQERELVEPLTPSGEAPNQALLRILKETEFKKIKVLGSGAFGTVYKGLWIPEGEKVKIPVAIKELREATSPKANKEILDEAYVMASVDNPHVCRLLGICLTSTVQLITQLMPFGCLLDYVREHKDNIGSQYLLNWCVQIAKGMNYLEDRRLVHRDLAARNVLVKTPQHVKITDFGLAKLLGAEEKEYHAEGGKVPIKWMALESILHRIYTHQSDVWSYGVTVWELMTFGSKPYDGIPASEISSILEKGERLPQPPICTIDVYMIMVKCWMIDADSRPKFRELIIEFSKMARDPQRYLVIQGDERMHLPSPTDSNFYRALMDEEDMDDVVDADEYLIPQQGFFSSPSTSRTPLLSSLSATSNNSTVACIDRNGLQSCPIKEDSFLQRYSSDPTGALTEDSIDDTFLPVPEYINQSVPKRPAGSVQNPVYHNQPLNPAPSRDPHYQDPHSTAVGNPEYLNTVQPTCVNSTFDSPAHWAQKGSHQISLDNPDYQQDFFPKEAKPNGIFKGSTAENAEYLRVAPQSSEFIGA
# Assay method text: Cellular Phosphorylation Assay, Assay 5 (EGF-stimulated EGFR phosphorylation, NIH 3T3 cells)
# Type: cell-based
# Run conditions: cellular EGFR WT phosphorylation, EGF-stimulated
pIC50: −log10 of the molar value.
Observable: pIC50

Example cases with answers are listed next.
C=CC(=O)N1C[C@H](c2ccc3ncnc(Nc4ccc(Oc5ccn6ncnc6c5)c(C)c4F)c3n2)C[C@H]1COC (mixture of isomers) [Example 306] ... 5.51
C=CC(=O)N1C[C@H](c2ccc3ncnc(Nc4cc(C)c(Oc5ccn6ncnc6c5)cc4F)c3n2)C[C@H]1C (mixture of isomers) [Example 386] ... ≤ 5.30
C=CC(=O)N1CCN(c2ccc3ncnc(Nc4cc(C)c(Oc5ccn6ncnc6c5)cc4F)c3n2)C[C@@H]1C1CC1 [Example 284] ... ≤ 5.30
C=CC(=O)N1CCN(c2ccc3ncnc(Nc4ccc(Oc5ccn6ncnc6c5)c(Cl)c4F)c3n2)C[C@@H]1COC [Example 348] ... 6.46
C=CC(=O)N1CCC(c2ccc3ncnc(Nc4ccc(Oc5cnc6c(c5)ncn6C)c(C)c4)c3n2)CC1 [Example 273] ... ≤ 5.30

Okay, next one:
Exam item: Given the entry C=CC(=O)N1C[C@H]2CC[C@H](c3ccc4ncnc(Nc5ccc(Oc6ccn7ncnc7c6)c(C)c5)c4n3)[C@H]2C1 [Example 409] , report its measured pIC50.
Marked response: ≤ 5.30

* * *

# Target desc: UniProtKB P00533
# Assay method text: ErbB Enzyme Assay (HTRF KinEASE-TK), Assay 3
# Assay type: biochemical
# Run conditions: EGFR enzyme
Observable: IC50 (nM)

C=CC(=O)N1CC(c2ccc3ncnc(Nc4cc(C)c(Oc5ccc6c(c5)ncn6C)cc4F)c3n2)CCC12CC2 (stereo not shown) [Example 196] ... 1160
C=CC(=O)N1CC(c2ccc3ncnc(Nc4ccc(Oc5ccc6c(c5)ncn6C)c(C)c4F)c3n2)CC1C (stereo not shown) [Example 124] ... 3900
CC#CC(=O)N1CCN(c2ccc3ncnc(Nc4ccc(Oc5ccn6ncnc6c5)c(Cl)c4F)c3n2)CC12CC2 [Example 181] ... 553
C=CC(=O)N1C[C@@H]2C[C@H]1CN2c1ccc2ncnc(Nc3ccc(Oc4ccn5ncnc5c4)c(C)c3F)c2n1 [Example 95] ... 378
C=CC(=O)N1C[C@H]2CC[C@@H]1C[C@H]2c1ccc2ncnc(Nc3ccc(Oc4ccn5ncnc5c4)c(C)c3F)c2n1 (racemic) [Example 218] ... 1420

1 = C=CC(=O)N1C[C@H]2CC[C@@H](C1)[C@@H]2c1ccc2ncnc(Nc3cc(C)c(Oc4ccn5ncnc5c4)cc3F)c2n1 [Example 222]
2 = C=CC(=O)N1CC[C@@H]2C[C@H]1CN2c1ccc2ncnc(Nc3ccc(Oc4ccn5ncnc5c4)c(C)c3F)c2n1 [Example 65]
Exam item: When their IC50 values are compared, which is larger, 1 or 2 ? Give the label of your selection.
Marked response: 1
